Reported recombinant barcode read abundance (log10) values follow for various sequences
- test.name: recombinant barcode read abundance after kanamycin selection (control-corrected) (log10(CPM+1)); higher = more efficient recombination; sequences stand for … in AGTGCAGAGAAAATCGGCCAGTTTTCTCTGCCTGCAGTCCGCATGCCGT…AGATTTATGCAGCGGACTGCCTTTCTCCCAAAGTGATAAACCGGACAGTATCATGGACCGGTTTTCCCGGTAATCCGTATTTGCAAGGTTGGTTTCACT; site = the 11-nt target;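 further: IS621 recombinase and bridge RNA in Escherichia coli cells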
measurement.name: recombinant barcode read abundance (log10)

# residue.codes, endpoint.value
data = [
    ("CTTGAATCTTGGGTTCTAACCTGTTGCCT (site CTTGAATCTAG)", 0.379),
    ("AGTAAGCCTTGGGTTCTAACCTGTTGCAG (site ACTAAGCCTCC)", 0.133),
    ("AGCTTAGCTTGGGTTCTAACCTGTTGCCC (site AGCTTAGCTTG)", 0.0493),
    ("TAGTTGCCTTGGGTTCTAACCTGTTGCCT (site TACTTGCCTAG)", 0),
    ("CACTTGTCTTGGGTTCTAACCTGTTGCCA (site TATTTGTCTTG)", 0.0129),
    ("TCTTAGACTTGGGTTCTAACCTGTTGCCT (site TCTTAGACTCG)", 0.0132),
    ("GGGGTTCCTTGGGTTCTAACCTGTTGCAT (site GGGGTTCCTAC)", 0.129),
    ("CCGTCTACTTGGGTTCTAACCTGTTGCCT (site CAGTCTACTAG)", 0.0408),
    ("TCAAAGCCTTGGGTTCTAACCTGTTGCTG (site TCAGAGCCTCA)", 0.372),
    ("TACCAGACTTGGGTTCTAACCTGTTGCCT (site TACCAGACTAG)", 1.26),
]

Origin of the recorded values: the supplement of paper PMC11208160
